Ref: patent US20190248834A1

# System: severe osteoarthritis of both knees
# assay-details: Example 88: analgesic efficacy of eight derivatives on severe osteoarthritis, topical
# Format: in vivo, human
# conditions-used: 1% (w/v) in WEP442, topical to the knees
*: point of attachment. NHOH = ON*
quantity: pain relief

[[record]]
substance = "N-Ac-Tyr-Pro-Phe-Phe-NHOH (Ac-YPFF-{NHOH}; SMILES CC(=O)N[C@@H](Cc1ccc(O)cc1)C(=O)N1CCC[C@H]1C(=O)N[C@@H](Cc1ccccc1)C(=O)N[C@@H](Cc1ccccc1)C(=O)NO)"
test_result = "very good relief of pain"

[[record]]
substance = "N-Ac-Tyr-Pro-Phe-Phe-NHCH2CH3 (Ac-YPFF-NHEt; SMILES CCNC(=O)[C@H](Cc1ccccc1)NC(=O)[C@H](Cc1ccccc1)NC(=O)[C@@H]1CCCN1C(=O)[C@H](Cc1ccc(O)cc1)NC(C)=O)"
test_result = "very good relief of pain"


###

# System: severe osteoarthritis of both knees
# assay-details: Example 88: analgesic efficacy of eight derivatives on severe osteoarthritis, topical
# Assay type: in vivo, human
# conditions-used: 1% (w/v) in WEP442, topical to the knees
*: point of attachment. NHNHAc = CC(=O)NN*; NHiPr = CC(C)N*; NHOH = ON*
Listed here are substances together with their documented time to pain relief.
quantity: time to pain relief

[[record]]
substance = "N-Ac-Tyr-Pro-Phe-Phe-NHCH2CH3 (Ac-YPFF-NHEt; SMILES CCNC(=O)[C@H](Cc1ccccc1)NC(=O)[C@H](Cc1ccccc1)NC(=O)[C@@H]1CCCN1C(=O)[C@H](Cc1ccc(O)cc1)NC(C)=O)"
test_result = "3 to 5 min"

[[record]]
substance = "N-Ac-Tyr-Pro-Phe-Phe-NHCH(CH3)2 (Ac-YPFF-NHiPr; SMILES CC(=O)N[C@@H](Cc1ccc(O)cc1)C(=O)N1CCC[C@H]1C(=O)N[C@@H](Cc1ccccc1)C(=O)N[C@@H](Cc1ccccc1)C(=O)NC(C)C)"
test_result = "≤ 15 min"

[[record]]
substance = "N-Ac-Tyr-Pro-Phe-Phe-NHNHAc (Ac-YPFF-NHNHAc; SMILES CC(=O)NNC(=O)[C@H](Cc1ccccc1)NC(=O)[C@H](Cc1ccccc1)NC(=O)[C@@H]1CCCN1C(=O)[C@H](Cc1ccc(O)cc1)NC(C)=O)"
test_result = "2 to 3 min"

[[record]]
substance = "N-Ac-Tyr-Pro-Phe-Phe-NHOH (Ac-YPFF-{NHOH}; SMILES CC(=O)N[C@@H](Cc1ccc(O)cc1)C(=O)N1CCC[C@H]1C(=O)N[C@@H](Cc1ccccc1)C(=O)N[C@@H](Cc1ccccc1)C(=O)NO)"
test_result = "3 to 4 min"

